# method: qHTS profiling of the MIPE4 collection as inhibitors of Plasmodium falciparum (HB3) proliferation (AID 743347);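 further: plate controls were DMSO vehicle wells for no effect and artemisinin wells for full effect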
# protocol_conditions: P. falciparum HB3 in erythrocytes, SYBR Green DNA, 72 h; at 28.5 µM (top of the series) unless noted
# Procedure: Plasmodium falciparum is a virulent malarial parasite that kills 1-2 million people worldwide each year. […] Because mature erythrocytes lack DNA, only Plasmodium-derived DNA is detected. The SYBR Green viability assay was adapted from a method described previously (Plouffe et al., 2008). […] The following morning, fluorescence intensity at 485(14) nm excitation and 535(25) nm emission wavelengths was measured on an EnVision (Perkin Elmer) plate reader. […]
The following compounds are listed with their measured growth, % of control values.
readout_type: growth, % of control (%)

- compound: "CNCC[C@H](Oc1cccc2ccccc12)c1cccs1"
  numeric_value: 3.44
- compound: "CCOC(=O)c1ccc(C#Cc2ccc3c(c2)C(C)(C)CCS3)nc1"
  numeric_value: 50.6
- compound: "CN(C)CCc1c[nH]c2ccc(CS(=O)(=O)N3CCCC3)cc12"
  numeric_value: 70.4
- compound: "CNS(=O)(=O)CCc1ccc2[nH]cc(C3CCN(C)CC3)c2c1"
  numeric_value: 92.7
- compound: "CCc1cc(C(N)=S)ccn1"
  numeric_value: 2.68
- compound: "Nc1ccc(S(=O)(=O)Nc2ccccn2)cc1"
  numeric_value: 54.6
- compound: "CC1=NN(c2ccccc2)C(=O)C1"
  numeric_value: 103
- compound: "Cn1nnc2c(C(N)=O)ncn2c1=O"
  numeric_value: 98.2
- compound: "COc1cc2nc(N3CCCN(C)CC3)nc(NC3CCN(Cc4ccccc4)CC3)c2cc1OC"
  numeric_value: 8.7
- compound: "CN1CCN(c2c(F)cc3c(=O)c(C(=O)O)cn(CCF)c3c2F)CC1"
  numeric_value: 99
- compound: "COc1ccccc1OCC(O)COC(N)=O (stereo not drawn)"
  numeric_value: 111
- compound: "O=C(NCC1CN(c2ccc(N3CCOCC3=O)cc2)C(=O)O1)c1ccc(Cl)s1 (stereo not drawn)"
  numeric_value: 59.9
- compound: "N[C@@H](C(=O)N[C@@H]1C(=O)N2C(C(=O)O)=C(Cl)CS[C@H]12)c1ccccc1"
  numeric_value: 97.6
- compound: "CC1=CC(=O)c2ccccc2C1=O"
  numeric_value: 23.6
- compound: "O=C(O)c1cc(=O)[nH]c(=O)[nH]1"
  numeric_value: 107
- compound: "O=C(N[C@H](CO)[C@H](O)c1ccc([N+](=O)[O-])cc1)C(Cl)Cl"
  numeric_value: 105
- compound: "NCCCC(O)(P(=O)(O)O)P(=O)(O)O"
  numeric_value: 117
- compound: "C[C@@H](CN1CC(=O)NC(=O)C1)N1CC(=O)NC(=O)C1"
  numeric_value: 65.5
- compound: "COc1ccc(C(=O)CC(=O)c2ccc(C(C)(C)C)cc2)cc1"
  numeric_value: 2.68
- compound: "Cc1cccc(N(C)C(=S)Oc2ccc3ccccc3c2)c1"
  numeric_value: 50.4
- compound: "COc1c(N2CCNC(C)C2)c(F)cc2c(=O)c(C(=O)O)cn(C3CC3)c12 (stereo not drawn)"
  numeric_value: 21.7
- compound: "CCN(CC)CC#CCOC(=O)C(O)(c1ccccc1)C1CCCCC1 (stereo not drawn)"
  numeric_value: 11.2
- compound: "CNNCc1ccc(C(=O)NC(C)C)cc1"
  numeric_value: 68.9
- compound: "CCCCc1oc2ccc(NS(C)(=O)=O)cc2c1C(=O)c1ccc(OCCCN(CCCC)CCCC)cc1"
  numeric_value: 7.93
- compound: "COc1cccc(N(C)C(=S)Oc2ccc3c(c2)CCCC3)n1"
  numeric_value: 24.4
- compound: "CO[C@@H]1[C@@H](OC(N)=O)[C@@H](O)[C@H](Oc2ccc3c(O)c(NC(=O)c4ccc(O)c(CC=C(C)C)c4)c(=O)oc3c2C)OC1(C)C"
  numeric_value: 45.7
